Hello, the source for this data is the kinase profiling compilation of Christmann-Franck et al. (2016), in case you need it.

Tgt: CDK7 (human)
Assay overview: KINOMEscan competition binding
Conditions: compound 10.0 µM
Here the recorded kinase still bound, per cent of control is given for each entry.
Test readout: kinase still bound, per cent of control (%)

CCOc1cc(N2CCC(N3CCCCC3)CC2)ccc1Nc1nc(Nc2ccccc2S(=O)(=O)C(C)C)c2cn[nH]c2n1 : 42
CCN1CCN(Cc2ccc(NC(=O)c3ccc(C)c(Oc4ccnc5[nH]ccc45)c3)cc2C(F)(F)F)CC1 : 2.4
CCN1CCN(Cc2ccc(NC(=O)c3ccc(C)c(/C=C/c4cnc(Nc5cc(N6CCNCC6)nc(C)n5)cn4)c3)cc2C(F)(F)F)CC1 : 3
COc1cc(N2CCC(N3CCN(C)CC3)CC2)ccc1Nc1ncc(Cl)c(Nc2ccccc2S(=O)(=O)C(C)C)n1 : 0.15
